# ASSAYED SYSTEM: rSmTAChE (Schistosoma mansoni, UniProt A0A3Q0KMM5)
# Sequence (A0A3Q0KMM5 27-661 limits assumed): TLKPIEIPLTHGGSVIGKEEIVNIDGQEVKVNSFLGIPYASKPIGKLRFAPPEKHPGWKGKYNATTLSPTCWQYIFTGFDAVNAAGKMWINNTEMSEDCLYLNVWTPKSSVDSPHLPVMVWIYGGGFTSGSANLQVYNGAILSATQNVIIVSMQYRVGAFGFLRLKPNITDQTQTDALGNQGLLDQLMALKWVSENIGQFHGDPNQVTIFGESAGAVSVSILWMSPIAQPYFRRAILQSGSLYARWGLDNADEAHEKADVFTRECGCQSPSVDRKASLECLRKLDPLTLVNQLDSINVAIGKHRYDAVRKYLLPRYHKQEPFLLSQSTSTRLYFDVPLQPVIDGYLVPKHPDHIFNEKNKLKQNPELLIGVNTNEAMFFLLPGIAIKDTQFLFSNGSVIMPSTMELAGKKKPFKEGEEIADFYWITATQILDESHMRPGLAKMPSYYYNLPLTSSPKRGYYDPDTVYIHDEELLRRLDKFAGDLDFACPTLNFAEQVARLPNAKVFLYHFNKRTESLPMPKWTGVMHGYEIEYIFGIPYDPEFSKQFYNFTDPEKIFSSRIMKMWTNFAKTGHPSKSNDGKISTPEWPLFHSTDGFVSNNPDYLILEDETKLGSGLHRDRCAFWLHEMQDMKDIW
# EXPERIMENT NOTES: biochemical
Would you kindly list Inhibition (%) Replicate B for each of these compounds?
In your response, the unit should come after the numeric value.

Documented Inhibition (%) Replicate B of O=C(C[C@H]1C[C@H]2c3cc(NC(=O)Nc4ccc(C(F)(F)F)cc4)ccc3O[C@H]2[C@@H](CO)O1)NC1CCCCC1 [BRD-K18925241-001-01-0] : 78.17%

Documented Inhibition (%) Replicate B of O=C(C[C@H]1C=C[C@H](NC(=O)c2ccncc2)[C@@H](CO)O1)Nc1ccc(-c2ccccc2)cc1 [BRD-K04695993-001-01-5] : 87.01%

Documented Inhibition (%) Replicate B of Nc1nc(NCC2CCC(CNS(=O)(=O)c3cccc4ccccc34)CC2)nc2ccccc12 (stereo not drawn) [CGP-71683, reference compound] : 61.03%

Documented Inhibition (%) Replicate B of COc1ccc(NC(=O)Nc2ccc3c(c2)[C@H]2C[C@@H](CC(=O)NCc4ccccn4)O[C@H](CO)[C@H]2O3)cc1 [BRD-K96625719-001-01-4] : 73.88%

Documented Inhibition (%) Replicate B of Cc1c(C(=O)NN2CCCCC2)nn(-c2ccc(Cl)cc2Cl)c1-c1ccc(Cl)cc1 [BRD-K13296708-001-05-8] : 75.71%

Documented Inhibition (%) Replicate B of C/C=C/c1cccc(-c2nc(C(=O)NCc3ccc(OC)cc3)cc3c2[C@@H](CCO)N([S@+]([O-])C(C)(C)C)C3)c1 [BRD-K73104592-001-03-5] : 62.45%

----------
# ASSAYED SYSTEM: rSmTAChE (Schistosoma mansoni, UniProt A0A3Q0KMM5)
# EXPERIMENT NOTES: biochemical
Param threshold (70%) applies to Inhibition (%) Replicate B; output yes (1) when value >= threshold, no (0) when value < threshold.

Could you verify whether the entry C[C@]12CC[C@@H]3c4ccc(O)cc4C[C@@H](CCCCCCCCC[S+]([O-])CCCC(F)(F)C(F)(F)F)[C@H]3[C@@H]1CC[C@@H]2O (stereo partly shown) [BRD-A85667082-001-13-5] shows Inhibition (%) Replicate B of no less than 70%? yes (1)

Could you verify whether the entry O=C(Nc1ccccc1Br)N[C@@H]1CCN(c2ccc(C(F)(F)F)cn2)C1 [BRD-K65991129-001-02-9] shows Inhibition (%) Replicate B of no less than 70%? no (0)

Could you verify whether the entry O=C(O)CCc1cc(C(=O)c2ccc(OC3CCCC3)cc2O)ccc1OCc1ccc2c(=O)[nH]oc2c1 [BRD-K84925803-001-01-9] shows Inhibition (%) Replicate B of no less than 70%? yes (1)

Could you verify whether the entry C[C@]12CCC3c4ccc(O)cc4CCC3C1CC[C@@H]2OC(=O)CCC1CCCC1 (stereo partly shown) [BRD-A91452556-001-04-0] shows Inhibition (%) Replicate B of no less than 70%? yes (1)

Could you verify whether the entry Cc1cnc(Nc2ccc(N3CCN(C)CC3)cc2)nc1Nc1cccc(S(=O)(=O)NC(C)(C)C)c1 [TG-101209, reference compound] shows Inhibition (%) Replicate B of no less than 70%? yes (1)

Could you verify whether the entry C[C@@H]1C[C@H]2[C@@H]3CCC4=CC(=O)C=C[C@]4(C)[C@@]3(Cl)[C@@H](O)C[C@]2(C)[C@@]1(OC(=O)c1ccco1)C(=O)CCl [BRD-K60640630-001-11-0] shows Inhibition (%) Replicate B of no less than 70%? yes (1)

Could you verify whether the entry COC(=O)C1=C(C)NC(C)=C(C(=O)OC/C=C/c2ccccc2)C1c1cccc([N+](=O)[O-])c1 (stereo not shown) [BRD-A68083442-001-01-6] shows Inhibition (%) Replicate B of no less than 70%? yes (1)

Could you verify whether the entry C[C@H]1[C@H](C)CC[C@]2(C(=O)O)CC[C@]3(C)C(=CC[C@@H]4[C@@]5(C)CC[C@H](O)C(C)(C)[C@@H]5CC[C@]43C)[C@H]12 [BRD-K68185022-001-14-8] shows Inhibition (%) Replicate B of no less than 70%? yes (1)

Could you verify whether the entry CCOc1nc2cccc(C(=O)OCc3oc(=O)oc3C)c2n1Cc1ccc(-c2ccccc2-c2noc(=O)[nH]2)cc1 [BRD-K25723200-001-03-5] shows Inhibition (%) Replicate B of no less than 70%? no (0)

Could you verify whether the entry CCc1c(C(=O)NCCc2ccc(N3CCCCC3)cc2)[nH]c2ccc(Cl)cc12 [BRD-K57597776-001-01-2] shows Inhibition (%) Replicate B of no less than 70%? no (0)

Could you verify whether the entry CC(C)Oc1ccc(-c2nn([C@@H](C)c3oc4ccc(F)cc4c(=O)c3-c3cccc(F)c3)c3ncnc(N)c23)cc1F [BRD-K52579889-001-01-9] shows Inhibition (%) Replicate B of no less than 70%? no (0)

Could you verify whether the entry COc1ccc(NC(=O)Nc2ccc3c(c2)[C@@H]2C[C@H](CC(=O)NCc4ccc5c(c4)OCO5)O[C@@H](CO)[C@@H]2O3)cc1 [BRD-K27599706-001-01-0] shows Inhibition (%) Replicate B of no less than 70%? yes (1)

----------
# ASSAYED SYSTEM: recombinant human acetylcholinesterase, rHsAChE (Homo sapiens)
# Sequence (P22303 32-614): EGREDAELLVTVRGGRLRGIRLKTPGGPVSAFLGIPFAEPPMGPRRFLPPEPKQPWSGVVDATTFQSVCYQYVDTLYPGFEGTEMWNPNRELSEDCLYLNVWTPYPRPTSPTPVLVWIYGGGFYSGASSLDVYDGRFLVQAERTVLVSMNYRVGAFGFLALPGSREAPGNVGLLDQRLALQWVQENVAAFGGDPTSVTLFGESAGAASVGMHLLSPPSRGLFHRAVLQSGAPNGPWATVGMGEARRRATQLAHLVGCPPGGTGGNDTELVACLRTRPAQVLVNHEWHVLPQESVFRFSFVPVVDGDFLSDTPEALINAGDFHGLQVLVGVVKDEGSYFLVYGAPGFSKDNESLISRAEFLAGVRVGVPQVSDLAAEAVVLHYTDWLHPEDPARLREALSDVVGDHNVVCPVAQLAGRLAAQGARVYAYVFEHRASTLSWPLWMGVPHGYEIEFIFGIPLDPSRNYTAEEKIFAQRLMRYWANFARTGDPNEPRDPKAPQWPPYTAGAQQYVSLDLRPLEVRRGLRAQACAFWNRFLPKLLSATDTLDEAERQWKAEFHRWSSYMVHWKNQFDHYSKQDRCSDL
# EXPERIMENT NOTES: biochemical
MEASUREMENT NAME: SI (Sm/Hs)
Keep the answer to the number alone.

Documented SI (Sm/Hs) of COc1ccc(-c2ccc3ncc4c(c3c2)n(-c2ccc(N3CCNCC3)c(C(F)(F)F)c2)c(=O)n4C)cn1 [NVP-BGT226, reference compound] : 2.81

Documented SI (Sm/Hs) of CCCCC(CC)CCC(CC(C)C)OS(=O)(=O)O (centres unmarked) [Sodium-tetradecyl-sulfate, reference compound] : 2.01

Documented SI (Sm/Hs) of O=C(Nc1cccc2c(=O)cc(-c3nnn[nH]3)oc12)c1ccc(OCCCCc2ccccc2)cc1 [Pranlukast, reference compound] : 2.18

Documented SI (Sm/Hs) of CC1(COc2ccc3c(c2)ncn3-c2ccc3cccc(N4CCC(N)CC4)c3n2)COC1 [Crenolanib, reference compound] : 1.97

Documented SI (Sm/Hs) of O=C(Nc1ncc(SCCN2CCCC2)s1)[C@]1(c2ccc(S(=O)(=O)C3CC3)cc2)C[C@H]1C1CCCCC1 [LY2608204, reference compound] : 23.28

----------
# ASSAYED SYSTEM: rSmTAChE (Schistosoma mansoni)
# Format: biochemical
# RECORDED CONDITIONS: read-out: qAC50 (IC50), rSmTAChE
Would you kindly list IC50 for each of these compounds?
# number only, unit µM dropped from output

Documented IC50 of CC(C)=CCC/C(C)=C/CC/C(C)=C/CSc1ccccc1C(=O)O : 11.6

Documented IC50 of C[C@H](Oc1cc(-c2cnn(C3CCNCC3)c2)cnc1N)c1c(Cl)ccc(F)c1Cl : 26.8

Documented IC50 of Cc1cc(SCc2sc(-c3ccc(C(F)(F)F)cc3)nc2C)ccc1OCC(=O)O : 16.4

Documented IC50 of O=C(O)CNC(=O)c1c(O)c2ccccc2n(Cc2ccccc2)c1=O [IOX2, reference compound] : 16.7

----------
# ASSAYED SYSTEM: recombinant human acetylcholinesterase, rHsAChE (Homo sapiens)
# EXPERIMENT NOTES: biochemical
Where a name gives a salt, the structure may show the parent alone.
MEASUREMENT NAME: Data Mode (curve class), rHsAChE

Worked examples, 6 compounds total:
CC(C)=CCC/C(C)=C/CC/C(C)=C/CSc1ccccc1C(=O)O: decreasing
O=c1sn(-c2cccc3ccccc23)c(=O)n1Cc1ccccc1: inactive
NC(=O)N/N=C/c1ccc(Oc2ccc(F)cc2)cc1: inactive
CN(C)C(=O)Oc1cccc([N+](C)(C)C)c1 [Neostigmine bromide, reference compound]: decreasing
CNC(=O)Oc1ccc2c(c1)[C@]1(C)CCN(C)[C@@H]1N2C [Physostigmine sulfate, reference compound]: decreasing
O=C(Nc1ncc(SCCN2CCCC2)s1)[C@]1(c2ccc(S(=O)(=O)C3CC3)cc2)C[C@H]1C1CCCCC1 [LY2608204, reference compound]: decreasing

Documented Data Mode (curve class), rHsAChE of O=C(NCCCCN1CCN(c2cccc(Cl)c2Cl)CC1)c1ccc2c(c1)Cc1ccccc1-2 : inactive

Documented Data Mode (curve class), rHsAChE of C[C@]12CCC3c4ccc(OC(=O)c5ccccc5)cc4CCC3C1CC[C@@H]2O (some centres unmarked) : inactive

Documented Data Mode (curve class), rHsAChE of COC(=O)C1=C(C)NC(C)=C(C(=O)OC(C)(C)CN(C)CCC(c2ccccc2)c2ccccc2)C1c1cccc([N+](=O)[O-])c1 (centres unmarked) : inactive

Documented Data Mode (curve class), rHsAChE of Cc1cc(SCc2sc(-c3ccc(C(F)(F)F)cc3)nc2C)ccc1OCC(=O)O : decreasing
